# Tested on: OVCAR-4
# Protocol: NCI tumour cell line growth inhibition, 48 h
Calls of active or inactive are those of the source. Cut-off read from the data, not from the text of the source: active = GI50 up to about 1.1 µM and inactive = higher.
Labels: 1 (active), 0 (inactive)

# Compound, Assigned Category
rows = [
    ("CO/N=C(/C(=O)OC)c1ccccc1COc1ccccc1C(F)(F)F", 0),
    ("COc1c(Cl)ccc(Cl)c1C(=O)NNC(=O)c1c(Cl)c(Cl)c(Cl)c(Cl)c1-c1nc2cc(C(=O)c3ccccc3)ccc2[nH]1", 0),
    ("C[C@H]1C=C2C(=O)O[C@H]3CC[C@@H](C1)[C@@]23O", 0),
    ("CNc1nnc(CNc2ccc(-c3nnc(NC)n3N)cc2)n1N", 0),
    ("O=C(Nc1ccccc1)c1cc(S(=O)(=O)N2CCNNC2=O)c(S)cc1Cl", 0),
    ("CC(=O)O[C@H]1C[C@](C)(O)[C@@]23CC([C@@H](OC(=O)C(C)(C)O)[C@@H](OC(C)=O)C2(COC(=O)c2ccccc2)[C@H]1OC(C)=O)C(C)(C)O3 (stereo partly specified)", 0),
    ("COc1ccc(C2C(N)=NCC2c2ccccn2)cc1 (stereo unspecified)", 0),
    ("O=C(NNC(c1ccccc1)C(F)(F)F)c1ccncc1 (stereo unspecified)", 0),
    ("Oc1nc(-c2ccccc2)cc(-c2ccccc2O)n1", 0),
    ("CCc1nc(N)nc(N)c1-c1ccc(Cl)c(/N=C/N(C)C)c1", 0),
    ("CC1(C)CC2=NOS3=C2C(=NO3)C1c1ccccn1 (stereo unspecified)", 0),
    ("COC(COC(N)=O)C1=C(N2CC2)C(=O)C(C)=C(N2CC2)C1=O (stereo unspecified)", 1),
    ("CN(CCCNC(=O)c1nn(C)c2c1Cc1ccccc1-2)CCCNC(=O)c1nn(C)c2c1Cc1ccccc1-2", 0),
    ("O=c1[nH]c2ccccc2cc1C(Cl)=C(Cl)Cl", 0),
    ("Cc1c(C2=C(Br)C(=O)N(C)C2=O)c(=O)n(C)c(=O)n1C", 0),
    ("CC1(C)C2CC(c3ccncc3)ON2C(C)(C)N1O (stereo unspecified)", 0),
    ("Nc1nc(N)c(CCCCc2ccccc2)c(N)n1", 0),
    ("C[C@]12CCC(=O)C(O)=C1CC[C@@H]1C2CC[C@]2(C)NC(=O)CCC12 (stereo partly specified)", 0),
    ("c1ccc2c(c1)CCN(C1=NCCO1)C2", 0),
    ("CC(=N\\N)/C(C)=N/N=C(C)/C(C)=N/N=C(C)/C(C)=N/N=C(C)/C(C)=N/N", 0),
    ("CC(Oc1ccc(OCC2CCCCC2)cc1)C(=O)O (stereo unspecified)", 0),
]
